These data points were gathered from patent US20230114153A1.

For each record, write down the corresponding inhibition at 10 µM.
# MEASURED_TARGET: CYP2B6 (Homo sapiens)
# Construct: incubated with human liver microsomes; tissue Eurofins (contract protocol) ITEMG232; host or cells: human liver microsomes
# Sequence (P20813 whole entry): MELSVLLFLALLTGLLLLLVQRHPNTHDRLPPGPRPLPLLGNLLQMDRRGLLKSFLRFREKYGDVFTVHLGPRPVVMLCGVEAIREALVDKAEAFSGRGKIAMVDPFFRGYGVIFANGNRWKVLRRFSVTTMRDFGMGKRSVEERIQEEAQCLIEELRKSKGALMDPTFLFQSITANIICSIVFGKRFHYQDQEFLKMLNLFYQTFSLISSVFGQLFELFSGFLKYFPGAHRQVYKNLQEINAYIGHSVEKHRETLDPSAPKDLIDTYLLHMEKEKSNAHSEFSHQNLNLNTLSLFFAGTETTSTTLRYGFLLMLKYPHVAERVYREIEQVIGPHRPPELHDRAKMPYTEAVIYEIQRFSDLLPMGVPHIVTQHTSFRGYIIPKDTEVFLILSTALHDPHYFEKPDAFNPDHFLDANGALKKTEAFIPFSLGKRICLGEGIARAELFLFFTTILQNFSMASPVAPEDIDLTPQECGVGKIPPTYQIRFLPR
# ASSAY_PROCEDURE: CYP inhibition in human liver microsomes, CYP2B6
# Type: in vitro ADME
# TEST_CONDITIONS: probe bupropion, substrate bupropion, read-out: CYP2B6 Inh %
Give bare numbers, in %.

CCCCOC(=O)NS(=O)(=O)c1sc(CC(C)C)cc1-c1ccc(Cn2ccnc2C)cc1; 17.6

Next, consider the following molecule.
Please give the measured inhibition at 10 µM for this molecule: CCCCOC(=O)NS(=O)(=O)c1sc(CC(C)C)cc1-c1ccc(Cn2ccnc2)cc1 [Example C21, reference compound]
48.8

====

# MEASURED_TARGET: CYP2C8 (Homo sapiens, UniProt P10632)
# Construct: incubated with human liver microsomes; tissue Eurofins (contract protocol) ITEMG232; host or cells: human liver microsomes
# Sequence (P10632 whole entry): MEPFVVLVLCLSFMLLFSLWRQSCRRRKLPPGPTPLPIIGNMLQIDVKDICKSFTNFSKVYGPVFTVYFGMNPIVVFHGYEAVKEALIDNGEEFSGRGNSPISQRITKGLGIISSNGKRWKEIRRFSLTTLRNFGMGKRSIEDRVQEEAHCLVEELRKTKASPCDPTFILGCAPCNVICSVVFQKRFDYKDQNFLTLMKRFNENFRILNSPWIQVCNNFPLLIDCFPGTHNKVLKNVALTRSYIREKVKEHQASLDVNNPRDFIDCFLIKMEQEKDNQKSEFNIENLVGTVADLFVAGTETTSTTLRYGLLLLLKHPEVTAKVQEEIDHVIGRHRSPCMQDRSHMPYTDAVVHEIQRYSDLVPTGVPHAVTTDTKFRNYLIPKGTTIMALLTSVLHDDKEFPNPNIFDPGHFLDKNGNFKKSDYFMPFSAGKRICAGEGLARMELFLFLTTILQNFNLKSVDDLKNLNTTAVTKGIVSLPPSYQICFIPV
# ASSAY_PROCEDURE: CYP inhibition in human liver microsomes, CYP2C8
# Format: in vitro ADME
# TEST_CONDITIONS: probe paclitaxel and amodiaquine, substrates paclitaxel and amodiaquine, read-out: CYP2C8 Inh %
I'd appreciate it if you could supply inhibition at 10 µM values for the items below.
One number for each entry, in %.

CCCCOC(=O)NS(=O)(=O)c1sc(CC(C)C)cc1-c1ccc(Cn2ccnc2C)cc1; 37.5

Tell me reported inhibition at 10 µM for CCCCOC(=O)NS(=O)(=O)c1sc(CC(C)C)cc1-c1ccc(Cn2ccnc2)cc1 [Example C21, reference compound] , tested with CYP2C8 (Homo sapiens, UniProt P10632).
80.4

====

# MEASURED_TARGET: CYP2D6 (Homo sapiens)
# Construct: incubated with human liver microsomes; tissue Eurofins (contract protocol) ITEMG232; host or cells: human liver microsomes
# Sequence (P10635 whole entry): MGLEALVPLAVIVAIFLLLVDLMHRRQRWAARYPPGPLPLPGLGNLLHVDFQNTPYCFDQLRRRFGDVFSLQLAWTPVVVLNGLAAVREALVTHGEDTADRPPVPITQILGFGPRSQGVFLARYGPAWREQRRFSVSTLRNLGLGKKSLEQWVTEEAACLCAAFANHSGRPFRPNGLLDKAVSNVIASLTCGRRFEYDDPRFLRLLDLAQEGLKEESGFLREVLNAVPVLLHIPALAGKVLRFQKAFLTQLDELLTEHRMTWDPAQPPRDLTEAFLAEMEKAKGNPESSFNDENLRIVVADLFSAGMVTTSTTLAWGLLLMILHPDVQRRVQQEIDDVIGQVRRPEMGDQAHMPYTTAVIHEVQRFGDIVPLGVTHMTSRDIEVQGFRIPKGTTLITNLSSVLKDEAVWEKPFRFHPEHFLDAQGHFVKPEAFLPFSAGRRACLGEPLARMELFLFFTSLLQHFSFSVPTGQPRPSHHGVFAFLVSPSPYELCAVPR
# ASSAY_PROCEDURE: CYP inhibition in human liver microsomes, CYP2D6
# Assay type: in vitro ADME
# TEST_CONDITIONS: probe dextromethorphan, substrate dextromethorphan, read-out: CYP2D6 Inh %
Give measured inhibition at 10 µM for each item. Keep answers brief.
# output: number + unit

CCCCOC(=O)NS(=O)(=O)c1sc(CC(C)C)cc1-c1ccc(Cn2ccnc2)cc1 [Example C21, reference compound]; 81.2%

State the recorded inhibition at 10 µM for this entry: `CCCCOC(=O)NS(=O)(=O)c1sc(CC(C)C)cc1-c1ccc(Cn2ccnc2C)cc1`
22.4%

====

# Test system: CYP3A4&5
# ASSAY_PROCEDURE: CYP inhibition in human liver microsomes, CYP3A4&5 (testosterone)
# Format: in vitro ADME
# TEST_CONDITIONS: probe testosterone, substrate testosterone, read-out: CYP3A4&5 testosterone Inh %
OBSERVED_PROPERTY: inhibition at 10 µM (%)
Numbers only, in %.

CCCCOC(=O)NS(=O)(=O)c1sc(CC(C)C)cc1-c1ccc(Cn2ccnc2)cc1 [Example C21, reference compound]; 94.2

With those in mind, consider the next molecule.
// query inhibition at 10 µM value for entry `CCCCOC(=O)NS(=O)(=O)c1sc(CC(C)C)cc1-c1ccc(Cn2ccnc2C)cc1`
13.5

====

# MEASURED_TARGET: CYP2C9 (Homo sapiens, UniProt P11712)
# Construct: incubated with human liver microsomes; tissue Eurofins (contract protocol) ITEMG232; host or cells: human liver microsomes
# Sequence (P11712 whole entry): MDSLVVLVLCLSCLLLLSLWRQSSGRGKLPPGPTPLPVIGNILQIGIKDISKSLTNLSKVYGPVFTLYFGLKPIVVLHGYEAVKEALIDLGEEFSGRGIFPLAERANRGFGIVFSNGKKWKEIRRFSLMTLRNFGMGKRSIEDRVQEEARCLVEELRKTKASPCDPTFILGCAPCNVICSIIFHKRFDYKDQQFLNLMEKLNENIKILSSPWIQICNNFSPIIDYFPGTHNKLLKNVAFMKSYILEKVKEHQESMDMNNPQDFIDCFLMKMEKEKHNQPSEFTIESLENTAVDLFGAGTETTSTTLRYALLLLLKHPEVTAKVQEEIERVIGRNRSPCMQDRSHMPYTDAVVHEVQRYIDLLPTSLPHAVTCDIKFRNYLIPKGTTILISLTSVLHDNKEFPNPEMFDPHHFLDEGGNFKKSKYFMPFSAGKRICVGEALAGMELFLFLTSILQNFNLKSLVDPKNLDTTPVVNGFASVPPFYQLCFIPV
# ASSAY_PROCEDURE: CYP inhibition in human liver microsomes, CYP2C9
# Assay type: in vitro ADME
# TEST_CONDITIONS: probe diclofenac, substrate diclofenac, read-out: CYP2C9 Inh %
OBSERVED_PROPERTY: inhibition at 10 µM

Item under review: CCCCOC(=O)NS(=O)(=O)c1sc(CC(C)C)cc1-c1ccc(Cn2ccnc2C)cc1 [Example 1] . Reported inhibition at 10 µM?
58.9%
